Tested on: M14 melanoma
Experiment: NCI-60 one-dose screen, 48 h (100 = growth as untreated, 0 = no growth, -100 = all killed)
Conditions: 10 µM unless noted
Compounds without any hit were thinned out: in the full panel of roughly 83,000, 20% have a hit.

compound: COc1ccc(-n2c(=O)n(-c3ccc(-c4nc5ccc(F)cc5s4)cc3)c(=O)c3cccnc32)cc1
target: M14 melanoma
measurement-unit: %
growth: 107

compound: C=C(C)Cn1c(SCC(=O)c2cccs2)nc2sc3c(c2c1=O)CCCC3
target: M14 melanoma
measurement-unit: %
growth: 77.6

compound: O=C(Nc1ccccc1CNc1nc(Nc2ccc(OCCN3CCCC3)cc2)ncc1Cl)NC1CCCCC1
target: M14 melanoma
measurement-unit: %
growth: 31.1

compound: O=C(/C=C/c1ccc([N+](=O)[O-])cc1)c1cccc(Nc2nc(Nc3ccccc3)nc(Nc3ccccc3)n2)c1
target: M14 melanoma
measurement-unit: %
growth: 74.5

compound: CCOC(=O)c1c(Nc2nc3ccccc3s2)sc2c1CCC(=O)C2
target: M14 melanoma
measurement-unit: %
growth: 58.6

compound: COC(=O)c1nc(-c2ccccc2)oc1S(=O)(=O)N1CCN(c2ccc(OC)cc2)CC1
target: M14 melanoma
measurement-unit: %
growth: 54.2

compound: Cc1c2cnccc2c(C)c2c1c1cc(C(=O)O)ccc1n2C
target: M14 melanoma
measurement-unit: %
growth: -0.906

compound: COc1ccccc1/C=C/C1=C(C)CCC(c2ccccc2OC)C1C (stereo not drawn)
target: M14 melanoma
measurement-unit: %
growth: -10.7

compound: O=c1c(Cc2ccc(F)cc2)cc(-c2ccccc2)nn1C/C(=N/O)c1ccccc1
target: M14 melanoma
measurement-unit: %
growth: 37.5

compound: CCCCN(CCC#N)C(N)=O
target: M14 melanoma
measurement-unit: %
growth: 112

compound: C=CCNc1nc(O)c(/C=C2\C=Nc3ncccc32)s1
target: M14 melanoma
measurement-unit: %
growth: 24.5

compound: [2H]C([2H])([2H])Oc1ccc(/C=C/C(=O)/C=C(/C=C/c2ccc(OC([2H])([2H])[2H])c(OC([2H])([2H])[2H])c2OC([2H])([2H])[2H])OB(F)F)c(OC([2H])([2H])[2H])c1OC([2H])([2H])[2H]
target: M14 melanoma
measurement-unit: %
growth: 61.2

compound: O=C(N/N=C/c1ccccc1Cl)c1ccccc1Nc1ccnc(C(F)(F)F)c1
target: M14 melanoma
measurement-unit: %
growth: 23.1

compound: Oc1cccc(-c2nc(-c3n[nH]c(=S)n3-c3ccccc3)cc3c2[nH]c2ccccc23)c1
target: M14 melanoma
measurement-unit: %
growth: 24.6

compound: O=C(Nc1cccc2c1C(=O)c1cccc(NC(=O)c3ccc(C(=O)Nc4cccc5c4C(=O)c4cccc(NC(=O)c6ccccc6)c4C5=O)cc3)c1C2=O)c1ccccc1
target: M14 melanoma
measurement-unit: %
growth: 113

compound: O=C(Nc1ncc(Cc2cc(C(F)(F)F)ccc2Cl)s1)C(=S)N1CCOCC1
target: M14 melanoma
measurement-unit: %
growth: 86.7

compound: O=C(/C=C/C12c3ccccc3C(c3ccccc31)C1C(=O)NC(=O)C12)c1cccs1 (stereo not drawn)
target: M14 melanoma
measurement-unit: %
growth: 48.2

compound: CC1(C)CCC[C@]23C(=O)O[C@](O)(C(=O)C4=C[C@@](C)(/C=C/CCCc5ccc6ccc7cccc8ccc5c6c78)CC[C@@]42O)[C@@H]13
target: M14 melanoma
measurement-unit: %
growth: -62

These measurements were taken from PubChem BioAssay (NCI).
